Tested on: rodent lifetime carcinogenesis bioassay, tumor incidence TD50
Test: carcinogenic potency in animals, long-term in vivo studies, CPDB compilation (AID 1745844)
Settings: rat; strain Alpk:APfSD; females; by gavage; site: liver; lesion: hepatocellular carcinoma; dosed 88 weeks; study length 107 weeks
assay_metric: TD50

Challenge: Dear colleague, I am looking for the recorded TD50 of the following molecule: `CC/C(=C(\c1ccccc1)c1ccc(OCCN(C)C)cc1)c1ccccc1`
Response given: 17 mg/kg/day

====

Tested on: rodent lifetime carcinogenesis bioassay, tumor incidence TD50
Assay: carcinogenic potency in animals, long-term in vivo studies, CPDB compilation (AID 1745844)
Conditions: rat; strain Fischer 344; males; by gavage; site: liver; lesion: hepatocellular adenoma + hepatocellular carcinoma; dosed 103 weeks; study length 104 weeks
assay_metric: TD50

Challenge: Dear colleague, I am looking for the recorded TD50 of the following compound: `c1ccoc1`
Response given: 2.31 mg/kg/day
